# runDescription: SGF digest of 168 nutritive polypeptide library, intact protein by LC-MS/MS
# Format: in vitro ADME
# setupConditions: 168 nutritive polypeptide library, LC-MS/MS

molecule: SEQID-00510: nutritive polypeptide naturally produced in Turkey, recombinantly expressed in E. coli (protein, Meleagris gallopavo, nutritive polypeptide naturally produced in Turkey, recombinantly expressed in E. coli) MVPIAEKMAEKQEEPSNTQNGEPDNAEEGEGKKKKKVKREDLPPFEIVTGERLPAIFFKFQFRNVEYSSGRNKTFLCYVVETQGKESTTSRGYLEDEHAASHAEIAFFNTILPKCESSLRYNITWYVSSSPCVTCADRISETLRKNKNLRLTIMVGRLFMWEEPEMQAALKKMKSAGCKLRIMKPQDFEYVWQNFVEQEEGEEAKAFVPWEDIQENFQYYEEKLAEILQ
% Remaining at 10 min: 13.4%
--
molecule: SEQID-00598: nutritive polypeptide naturally produced in Flaxseed, recombinantly expressed in E. coli (protein, listed as Linum usitatissimum) MSRRCPGKNAWPELVGKSGNMAAATVERENRNVHAIVLKEGSAMTKDFRCDRVWVIVNDHGVVTSVPHIT
% Remaining at 10 min: 24.3%
--
molecule: SEQID-00647: protein of the 168 nutritive polypeptide library (protein, Arthrospira platensis C1, protein of the 168 nutritive polypeptide library) MALSKIEEARQLNDDDLSEQILEIKKQLANLRLLKATGRLEKPHEIRHTRHRLSQLLTVERERQLPNQSPA
% Remaining at 10 min: 12%
--
molecule: SEQID-00622: protein of the 168 nutritive polypeptide library (protein, listed as Oryza sativa, source: /note="subsp. japonica", protein of the 168 nutritive polypeptide library) MASEGAVSPAFAYTVVYVKDVAKSAAFYSAAFGYTVRRLDQSHKWAELESGTTTIAFTPLHQRETDALTGAVQLPDSAGERGPVEICFDYADVDAAYRRAVDSGAVPVSPPEQKSWGQKVGYVRDIDGIIVRMGSHVRA
% Remaining at 10 min: 43.6%
--
molecule: SEQID-00610: protein of the 168 nutritive polypeptide library (protein, listed as Saccharomyces cerevisiae, source: /note="strain ATCC 204508 / S288c", protein of the 168 nutritive polypeptide library) MVLEATVLVIDNSEYSRNGDFPRTRFEAQIDSVEFIFQAKRNSNPENTVGLISGAGANPRVLSTFTAEFGKILAGLHDTQIEGKLHMATALQIAQLTLKHRQNKVQHQRIVAFVCSPISDSRDELIRLAKTLKKNNVAVDIINFGEIEQNTELLDEFIAAVNNPQEETSHLLTVTPGPRLLYENIASSPIILEEGSSGMGAFGGSGGDSDANGTFMDFGVDPSMDPELAMALRLSMEEEQQRQERLRQQQQQQDQPEQSEQPEQHQDK
% Remaining at 10 min: 3.3%
